- Assay Target: Cathepsin H (Capra hircus)
- Sequence (A0A060INS8 whole entry): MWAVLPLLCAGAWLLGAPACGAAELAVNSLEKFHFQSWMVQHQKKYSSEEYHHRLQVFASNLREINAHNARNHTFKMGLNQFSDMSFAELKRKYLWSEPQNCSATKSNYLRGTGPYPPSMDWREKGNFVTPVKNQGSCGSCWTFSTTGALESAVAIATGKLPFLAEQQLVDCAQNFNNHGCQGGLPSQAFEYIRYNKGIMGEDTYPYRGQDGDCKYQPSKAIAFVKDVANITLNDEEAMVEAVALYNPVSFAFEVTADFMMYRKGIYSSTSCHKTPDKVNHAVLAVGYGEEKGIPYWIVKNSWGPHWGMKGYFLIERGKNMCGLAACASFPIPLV
Readout Label: Ki (µM)
Write down the numeric answer in µM and omit the unit.

- Compound: "COc1ccc(C2NC(=O)c3ccccc3N2)cc1 (centres undefined)"
  Assay Target: "Cathepsin H (Capra hircus)"
  Recorded Measurement: 56.8
- Compound: "Cc1ccc(C2NC(=O)c3ccccc3N2)cc1 (centres undefined)"
  Assay Target: "Cathepsin H (Capra hircus)"
  Recorded Measurement: 2.5
- Compound: "CN(C)c1ccc(C2NC(=O)c3ccccc3N2)cc1 (centres undefined)"
  Assay Target: "Cathepsin H (Capra hircus)"
  Recorded Measurement: 18.6

Exercise: Give the reported Ki for this compound. O=C1NC(c2ccc(Br)cc2)Nc2ccccc21 (centres undefined)
Key: 52.6

---

Listing of recorded pKi by entry.
- Assay Target: Cathepsin B (Capra hircus, UniProt H9B8T9)
- Test Description: Cathepsin Ezyme Assay
- Run Parameters: pH 6
Scale: pKi equals -log10([C]), with [C] in mol/L.

Look over these answered cases.
- Compound: "O=C1NC(c2ccc(F)cc2)Nc2ccccc21 (stereo not drawn)"
  pKi: 8.19
- Compound: "COc1ccc(C2NC(=O)c3ccccc3N2)cc1 (stereo not drawn)"
  pKi: 5.55

Field: next compound
Exercise: Give the reported pKi for this compound. O=C1NC(c2ccc(Br)cc2)Nc2ccccc21 (stereo not drawn)
Key: 4.49
